Hey, just so you know, these numbers are from PubChem BioAssay (NCI).

Each entry below lists one item and its recorded growth inhibition value.
# METHOD: NCI Yeast Anticancer Drug Screen. Data for the mlh1 rad18 strain (AID 175)
# PARTICULARS: S. cerevisiae mlh1 rad18 strain growth inhibition; at 50.0 µM; hits give high values
# Protocol: Growth inhibition of yeast strains with defined genetic alterations is measured as a screen for potential anti-cancer activity. Selected strains with alterations in DNA damage repair or cell cycle control were exposed to compounds and growth inhibition was measured relative to vehicle treated controls. The strain used in this assay is mlh1 rad18
Compounds without any hit were thinned out: in the full panel of roughly 79,000, 15% have a hit.

[
  {
    "COMPOUND": "COc1cc(C2c3cc4c(cc3[C@@H](Nc3ccc([N+](=O)[O-])cc3)C3COC(=O)[C@H]23)OCO4)cc(OC)c1O (stereo not given in full)",
    "growth inhibition, %": 88.5
  },
  {
    "COMPOUND": "Cc1cc(N(CCCl)CCCl)ccc1C1N(Cc2ccc(N(C)C)cc2)CCN1Cc1ccc(N(C)C)cc1",
    "growth inhibition, %": 18.6
  },
  {
    "COMPOUND": "COc1ccc(C(C)N)cc1 (stereo not given)",
    "growth inhibition, %": -2.9
  },
  {
    "COMPOUND": "Cc1ccc(OP(=O)(Oc2ccc(C)c(C)c2)Oc2ccc(C)c(C)c2)cc1C",
    "growth inhibition, %": -17
  },
  {
    "COMPOUND": "NCCC1CCc2[nH]c3ccccc3c2C1 (stereo not given)",
    "growth inhibition, %": -8.15
  },
  {
    "COMPOUND": "Clc1ccc2c(c1)C(c1ccccc1Cl)=NCC(SCCN1CCOCC1)=N2",
    "growth inhibition, %": 91.5
  },
  {
    "COMPOUND": "C=C(C)C(=O)OCC12CCC(C)=CC1OC1C(=O)C(OC(=O)C(=C)C)C2(C)C12CO2 (stereo not given)",
    "growth inhibition, %": -34
  },
  {
    "COMPOUND": "CC(=O)OCC1(N2CCCC2)CCCCC1",
    "growth inhibition, %": -16.6
  },
  {
    "COMPOUND": "CCN(CC)C(=O)N1CN(c2ccccc2)C2(CCN(CCCSc3ccc(F)cc3)CC2)C1=O",
    "growth inhibition, %": 20.6
  },
  {
    "COMPOUND": "[CH3][Sn]([CH3])([CH3])[O]C(=O)C(O)c1ccccc1 (stereo not given)",
    "growth inhibition, %": -2.3
  },
  {
    "COMPOUND": "CC(=O)Oc1cccc2c1C(=O)C(C(=O)C=O)C1C(C=O)OC(C)(C)OC21C (stereo not given)",
    "growth inhibition, %": 12.1
  },
  {
    "COMPOUND": "Cc1ccc2ccccc2c1",
    "growth inhibition, %": -7.35
  },
  {
    "COMPOUND": "C[As](C)SCCC(N)C(=O)NC(CCS[As](C)C)C(=O)O (stereo not given)",
    "growth inhibition, %": 75.5
  },
  {
    "COMPOUND": "CCCCCCCC(=O)O.[Pb]",
    "growth inhibition, %": 14.8
  },
  {
    "COMPOUND": "COc1ccc2nc3cc(Cl)ccc3c(NCCCSCCCl)c2n1",
    "growth inhibition, %": 92.2
  },
  {
    "COMPOUND": "COC1/C=C/C=C(/C)Cc2cc(O)c(Cl)c(c2)N(C)C(=O)CC(OC(=O)C(C)C)C2(C)OC2C(C)C2CC1(O)NC(=O)O2 (stereo not given)",
    "growth inhibition, %": -53
  },
  {
    "COMPOUND": "CS(=O)(=O)Cl",
    "growth inhibition, %": 0
  },
  {
    "COMPOUND": "COC1CC(OC2OC(CO)C(O)C(O)C2O)/C(=C\\C#N)C(O)C1OC (stereo not given)",
    "growth inhibition, %": -58.2
  },
  {
    "COMPOUND": "Brc1ccc2nncc(N3CC3)c2c1",
    "growth inhibition, %": -20.6
  },
  {
    "COMPOUND": "CC(NC1=NCCO1)c1ccccc1Cl (stereo not given)",
    "growth inhibition, %": -48
  },
  {
    "COMPOUND": "CC(=O)[O-].N.N.N.N.[Co+3].[O-][Cl+3]([O-])([O-])[O-].[OH3+]",
    "growth inhibition, %": 2.7
  },
  {
    "COMPOUND": "CC(=O)OCCCn1nc(COC(N)=O)c2c1CC(C)CC2=O (stereo not given)",
    "growth inhibition, %": 3.65
  },
  {
    "COMPOUND": "COC(C)(C)[CH]([Hg][Cl])n1ccccc1=O (stereo not given)",
    "growth inhibition, %": 99.3
  },
  {
    "COMPOUND": "Nc1nnc[se]1",
    "growth inhibition, %": -1.6
  },
  {
    "COMPOUND": "C(=Nc1ccccc1)C1CCCC[N-]1.C(=Nc1ccccc1)C1CCCC[N-]1.[Cu+2].[O-][Cl+3]([O-])([O-])O (stereo not given)",
    "growth inhibition, %": 88
  },
  {
    "COMPOUND": "COc1ccc2c3c1O[C@]1(C)C34CCN(C)C(C2)C42C=C[C@@]1(OC)c1c(O)ccc(O)c12",
    "growth inhibition, %": -0.9
  },
  {
    "COMPOUND": "O=C(CCl)NC1CCCCC1",
    "growth inhibition, %": -6.45
  },
  {
    "COMPOUND": "O=C(Cc1ccccc1)Oc1ccc2c(-c3ccccc3)c(C(=O)Nc3ccc(Cl)cc3)c(=O)oc2c1",
    "growth inhibition, %": 12.8
  },
  {
    "COMPOUND": "COc1ccc(NN=O)nc1",
    "growth inhibition, %": 3.95
  },
  {
    "COMPOUND": "O=C(/C=C/c1ccc([N+](=O)[O-])cc1Cl)Nc1cccc(S(=O)(=O)F)c1",
    "growth inhibition, %": -8.2
  },
  {
    "COMPOUND": "O=C(NC1CC1)c1c(O)[nH]c(=S)[nH]c1=O",
    "growth inhibition, %": -17.1
  },
  {
    "COMPOUND": "CC(C)(C)S.[Hg]",
    "growth inhibition, %": 99.5
  },
  {
    "COMPOUND": "CCC1(CC)COP(=S)(S)OC1",
    "growth inhibition, %": -3.2
  },
  {
    "COMPOUND": "CN(C)CCBr",
    "growth inhibition, %": 96.7
  },
  {
    "COMPOUND": "N#Cc1cc([N+](=O)[O-])c(Cl)c([N+](=O)[O-])c1",
    "growth inhibition, %": 92.2
  }
]
